# experimental.system: T1, HiBiT-tagged human FZD4 (human, UniProt Q9ULV1 37-537)
# T1 construct: the receptor's own signal peptide is probably replaced; also called HiBiT-FZD4; WT FZD4; source: HEK293A, transiently transfected, on live cells; not shown: HiBiT, N-terminal, kept
# T1 sequence (looked up): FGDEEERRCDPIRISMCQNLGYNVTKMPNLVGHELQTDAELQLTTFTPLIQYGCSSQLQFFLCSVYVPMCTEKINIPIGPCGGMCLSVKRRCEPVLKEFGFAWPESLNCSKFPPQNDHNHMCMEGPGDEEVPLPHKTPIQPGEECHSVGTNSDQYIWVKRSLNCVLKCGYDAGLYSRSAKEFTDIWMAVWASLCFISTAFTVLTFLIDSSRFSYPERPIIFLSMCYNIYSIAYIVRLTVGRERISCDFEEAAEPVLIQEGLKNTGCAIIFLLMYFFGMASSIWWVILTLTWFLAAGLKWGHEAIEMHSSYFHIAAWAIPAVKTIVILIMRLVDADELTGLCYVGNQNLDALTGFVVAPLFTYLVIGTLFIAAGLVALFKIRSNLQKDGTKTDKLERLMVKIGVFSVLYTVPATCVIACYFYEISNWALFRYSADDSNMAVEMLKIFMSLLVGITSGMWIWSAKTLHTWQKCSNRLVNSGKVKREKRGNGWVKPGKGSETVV
# measurement.notes: FRET or BRET; NanoBiT/BRET competition binding on live HEK293A cells with HiBiT-FZD4: 30 min preincubation with purified untagged WNT at 37 °C, then eGFP-WNT-3A to 0.4 nM for 240 min, then LgBiT and furimazine; pKi by Cheng-Prusoff
# measurement.setup: one partner purified
recorded.metric: 0.4 nM eGFP-WNT-3A binding displaced (%)
Numbers only, in %.

Ask: # input binder: untagged human WNT-5B (ligand, UniProt Q9H1J7 18-359, looked up, WNT-5B, human, untagged recombinant protein; source: bought: RnD Systems/Biotechne, purified) QLLTDANSWWSLALNPVQRPEMFIIGAQPVCSQLPGLSPGQRKLCQLYQEHMAYIGEGAKTGIKECQHQFRQRRWNCSTADNASVFGRVMQIGSRETAFTHAVSAAGVVNAISRACREGELSTCGCSRTARPKDLPRDWLWGGCGDNVEYGYRFAKEFVDAREREKNFAKGSEEQGRVLMNLQNNEAGRRAVYKMADVACKCHGVSGSCSLKTCWLQLAEFRKVGDRLKEKYDSAAAMRVTRKGRLELVNSRFTQPTPEDLVYVDPSPDYCLRNESTGSLGTQGRLCNKTSEGMDGCELMCCGRGYNQFKSVQVERCHCKFHWCCFVRCKKCTEIVDQYICK ; wanted: its 0.4 nM eGFP-WNT-3A binding displaced (%)
Reply: 78.3
